The origin of these recorded values is patent EP0409227A2.

Test system: Hep G2 (2.2.15)-Zellen
Experiment: DNA synthesis of Hep G2 (2.2.15) cells (acid-insoluble radioactivity after 3H-thymidine or 3H-deoxyadenosine)
Type: cell-based, menschlichen
Settings: nucleoside 0,1 µM; 4 days, then 24 h label; mean ± SD of five experiments
Hi there, I'd appreciate the recorded ^3H-DNA for every entry that follows.
# output: bare number, implied unit dpm/Kultur

### Prompt Request body: readout ^3H-DNA, system Hep G2 (2.2.15)-Zellen, query Nc1ccn([C@H]2C=C[C@@H](CO)O2)c(=O)n1 [2',3'-Didehydro-2',3'-didesoxycytidin] . Return the value.
### Response 19930

### Prompt Form: Entry = `Cc1cn([C@H]2C[C@H](Cl)[C@@H](CO)O2)c(=O)nc1N` | System = Hep G2 (2.2.15)-Zellen | ^3H-DNA = ____
### Response 15185

### Prompt Under Hep G2 (2.2.15)-Zellen: ^3H-DNA value of `CCc1cn([C@H]2C[C@H](F)[C@@H](CO)O2)c(=O)nc1N` ?
### Response 15245

### Prompt Record `Cc1cn([C@H]2C[C@H](N)[C@@H](CO)O2)c(=O)nc1N` : what is its ^3H-DNA with Hep G2 (2.2.15)-Zellen?
### Response 14350

### Prompt Request: ^3H-DNA, test system Hep G2 (2.2.15)-Zellen, entry `Cc1cn([C@@H]2O[C@H](CO)[C@@H](O)[C@@H]2O)c(=O)nc1N`
### Response 16225

### Prompt Observed ^3H-DNA on Hep G2 (2.2.15)-Zellen for Nc1ncnc2c1ncn2[C@H]1C=C[C@@H](CO)O1 [2′,3′-Didehydro-2′,3′-didesoxyadenosin] , please.
### Response 16230

### Prompt Reported ^3H-DNA for Hep G2 (2.2.15)-Zellen, given `Nc1nc(N)c2ncn([C@H]3C[C@H](F)[C@@H](CO)O3)c2n1` ?
### Response 19990

### Prompt Form field - read-out: ^3H-DNA; system: Hep G2 (2.2.15)-Zellen; submitted item: `Cc1cn([C@H]2C[C@H](F)[C@@H](CO)O2)c(=O)nc1N`
### Response 14350

----------
Consider the following compounds; for each one, report its ^3H-DNA.
Tested on: Hep G2 (2.2.15)-Zellen
Experiment: DNA synthesis of Hep G2 (2.2.15) cells (acid-insoluble radioactivity after 3H-thymidine or 3H-deoxyadenosine)
Assay type: cell-based, menschlichen
Details: nucleoside 1,0 µM; 4 days, then 24 h label; mean ± SD of five experiments
Use dpm/Kultur as the unit, but write only the number.

### Prompt Bench note: what ^3H-DNA did Nc1ncnc2c1ncn2[C@H]1C=C[C@@H](CO)O1 [2′,3′-Didehydro-2′,3′-didesoxyadenosin] show?
### Response 9930

### Prompt Please look up its ^3H-DNA: `Cc1cn([C@@H]2O[C@H](CO)[C@@H](O)[C@@H]2O)c(=O)nc1N`
### Response 12415

### Prompt Suppose we examine the compound `Cc1cn([C@H]2C[C@H](F)[C@@H](CO)O2)c(=O)nc1N` ; what ^3H-DNA value has been reported?
### Response 8295

----------
What CD₅₀ was measured for each of the following?
Tested on: MT4 Zellen
Assay: Cytotoxicity: inhibition of proliferation of MT4 cells
Format: cell-based
Settings: human, 48 h
# unit: µM | format: bare number

### Prompt Return reported CD₅₀; argument: `Cc1cn([C@H]2CC[C@@H](CO)O2)c(=O)nc1N`
### Response 110

### Prompt Please give the measured CD₅₀ for this compound: `Cc1cn([C@H]2C=C[C@@H](CO)O2)c(=O)nc1N`
### Response 205

### Prompt Given the entry Nc1ncnc2c1ncn2[C@H]1C=C[C@@H](CO)O1 [2′,3′-Didehydro-2′,3′-didesoxyadenosin] , report its measured CD₅₀.
### Response 48

### Prompt # query: CD₅₀ of entry Nc1nc2c(ncn2[C@H]2C=C[C@@H](CO)O2)c(=O)[nH]1 [2′,3′-Didehydro-2′,3′-didesoxyguanosin]
### Response 155

### Prompt // CD₅₀ lookup, key: `Nc1nc2c(ncn2[C@H]2C[C@H](N)[C@@H](CO)O2)c(=O)[nH]1`
### Response 210
